# SYSTEM NAME: T1, recombinant His-tagged Der p1 (dust mite, UniProt P08176 99-320, limits assumed)
# T1 construct: Recombinant His-tagged protein made by the applicant; also called Der p1-His; Der pl; not shown: His tag
# T1 sequence (looked up): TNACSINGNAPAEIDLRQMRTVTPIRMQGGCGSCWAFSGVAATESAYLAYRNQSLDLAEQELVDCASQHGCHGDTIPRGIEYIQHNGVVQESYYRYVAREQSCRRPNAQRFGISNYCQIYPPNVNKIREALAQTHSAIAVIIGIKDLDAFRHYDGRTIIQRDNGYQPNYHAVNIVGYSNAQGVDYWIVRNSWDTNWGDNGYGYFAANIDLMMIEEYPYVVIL
# TEST: ELISA, Der p1 on plate, biotinylated peptide at 3.333, duplicate 2
No end group written: not given here.
OD450 overview
Provide the reading as a plain figure in OD450.

Here are 5 binders together with their reported answers.
BINDER | OD450 / OD450
GIHMALM (also: biotinylated, site not given here, 7-amino acid peptide from a phage display library) [SDAB22110-2-B2] | 0.136
HSGPECG (also: biotinylated, site not given here, 7-amino acid peptide from a phage display library) [SDAB22110-2-D3] | 2.88
VVAFGIS (also: biotinylated, site not given here, 7-amino acid peptide from a phage display library) [SDAB22110-2-G1] | 0.145
YPTWAYR (also: biotinylated, site not given here, 7-amino acid peptide from a phage display library) [SDAB22110-2-C3] | 0.191
AVVSFYP (also: biotinylated, site not given here, 7-amino acid peptide from a phage display library) [SDAB22110-2-F1] | 0.209

// below: OD450 requested for another binder
Task: What does the record list as OD450 for LTGYGMS (also: biotinylated, site not given here, 7-amino acid peptide from a phage display library) [SDAB22110-2-D9] ?
Output: 0.154
